Test system: HLA-A*24
Experiment description: MHC binding assay, UV-ligand exchange with beta2m ELISA (exchange yield), HLA-A*24
Parameters: species or system human
Applied conditions: binding to HLA-A*24, UV-ligand exchange
Reported metric: Peptide exchange (MHC class I binding score, peptide exchange yield)

Completed entries (count: 4):
{"Substance": "364 (KYLNENQLSQL; listed as Homo sapiens) [compound 364]", "Measurement": "+++ (50%-75% = +++)"}
{"Substance": "298 (AYKSEVVYF; listed as Homo sapiens) [compound 298]", "Measurement": "++++ (>=75% = ++++)"}
{"Substance": "354 (VYNEQIRDLL; listed as Homo sapiens) [compound 354]", "Measurement": "+++ (50%-75% = +++)"}
{"Substance": "109 (LFITGGQFF; listed as Homo sapiens) [compound 109]", "Measurement": "++++ (>=75% = ++++)"}

Consider now this further substance.
Dear colleague, I am looking for the recorded Peptide exchange (MHC class I binding score, peptide exchange yield) of the following substance: 214 (KYLMELTLI; listed as Homo sapiens) [compound 214]
+++ (50%-75% = +++)

* * *

System: HLA-A*24
Experiment description: MHC binding assay, UV-ligand exchange with beta2m ELISA (exchange yield), HLA-A*24
Design: species or system human
Applied conditions: binding to HLA-A*24, UV-ligand exchange
Reported metric: Peptide exchange (MHC class I binding score, peptide exchange yield)

{"Substance": "310 (IYAPTLLVF; listed as Homo sapiens) [compound 310]", "Measurement": "+++ (50%-75% = +++)"}
{"Substance": "247 (SFTKTSPNF; listed as Homo sapiens) [compound 247]", "Measurement": "+++ (50%-75% = +++)"}
{"Substance": "100 (VYIESRIGTSTSF; listed as Homo sapiens) [compound 100]", "Measurement": "+++ (50%-75% = +++)"}
{"Substance": "195 (AYIKGGWIL; listed as Homo sapiens) [compound 195]", "Measurement": "+++ (50%-75% = +++)"}
{"Substance": "186 (VFTTSSNIF; listed as Homo sapiens) [compound 186]", "Measurement": "++++ (>=75% = ++++)"}

Dear colleague, I am looking for the recorded Peptide exchange (MHC class I binding score, peptide exchange yield) of the following substance: 107 (KYFPYLVVI; listed as Homo sapiens) [compound 107]
+++ (50%-75% = +++)

Dear colleague, I am looking for the recorded Peptide exchange (MHC class I binding score, peptide exchange yield) of the following substance: 154 (VYGVPTPHF; listed as Homo sapiens) [compound 154]
++++ (>=75% = ++++)

Dear colleague, I am looking for the recorded Peptide exchange (MHC class I binding score, peptide exchange yield) of the following substance: 98 (VFPRLHNVLF; listed as Homo sapiens) [compound 98]
+++ (50%-75% = +++)

Dear colleague, I am looking for the recorded Peptide exchange (MHC class I binding score, peptide exchange yield) of the following substance: 256 (VFGKSAYLF; listed as Homo sapiens) [compound 256]
+++ (50%-75% = +++)

* * *

Assayed target: HLA-A*02:01 (Homo sapiens, UniProt P04439, D140Y/D185E/D98H/E176V/E277Q/G131W/G231S/I119V/I121R/I166T/I218V/L300P/L318F/N151K/N90K/P208A/P217A/Q86G/Q94H/R138H/R169H/T345S)
Experiment description: MHC binding assay, UV-ligand exchange with beta2m ELISA (exchange yield), HLA-A*02
Applied conditions: binding to HLA-A*02 ranged by peptide exchange yield
Reported metric: Peptide exchange (MHC class I binding score)

{"Substance": "11 (GVLKVFLENV; listed as Homo sapiens) [compound 11]", "Measurement": "++ (20%-49% = ++)"}
{"Substance": "322 (ALVSGGVAQA; listed as Homo sapiens) [compound 322]", "Measurement": "+++ (50%-75% = +++)"}
{"Substance": "321 (SLWFKPEEL; listed as Homo sapiens) [compound 321]", "Measurement": "+++ (50%-75% = +++)"}
{"Substance": "331 (AIWKELISL; listed as Homo sapiens) [compound 331]", "Measurement": "+++ (50%-75% = +++)"}

Dear colleague, I am looking for the recorded Peptide exchange (MHC class I binding score) of the following substance: 32 (ILADEAFFSV; listed as Homo sapiens) [compound 32]
+++ (50%-75% = +++)

Dear colleague, I am looking for the recorded Peptide exchange (MHC class I binding score) of the following substance: 35 (YVLPKLYVKL; listed as Homo sapiens) [compound 35]
++ (20%-49% = ++)

Dear colleague, I am looking for the recorded Peptide exchange (MHC class I binding score) of the following substance: 41 (FVLPLVVTL; listed as Homo sapiens) [compound 41]
+++ (50%-75% = +++)

Dear colleague, I am looking for the recorded Peptide exchange (MHC class I binding score) of the following substance: 39 (ALMAVVSGL; listed as Homo sapiens) [compound 39]
+++ (50%-75% = +++)
